Numbers sourced from ChEMBL document CHEMBL1127162.

biological target: Substance-P receptor (Homo sapiens, UniProt P25103); assay: Inhibition of [125I]-Substance P binding to human NK1 receptors in CHO cells; type: cell-based
Sequence (P25103 whole entry): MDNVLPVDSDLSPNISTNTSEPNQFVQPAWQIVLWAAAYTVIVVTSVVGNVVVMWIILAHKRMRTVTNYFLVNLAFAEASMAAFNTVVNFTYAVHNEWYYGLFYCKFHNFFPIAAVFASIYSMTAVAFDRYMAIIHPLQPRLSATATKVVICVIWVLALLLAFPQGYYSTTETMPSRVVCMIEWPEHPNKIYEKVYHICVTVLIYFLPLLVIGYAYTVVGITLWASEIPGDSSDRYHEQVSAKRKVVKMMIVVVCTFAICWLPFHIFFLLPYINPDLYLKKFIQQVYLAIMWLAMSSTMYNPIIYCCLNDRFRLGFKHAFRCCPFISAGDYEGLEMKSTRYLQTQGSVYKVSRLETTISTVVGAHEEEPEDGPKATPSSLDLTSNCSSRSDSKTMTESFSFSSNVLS
Measured quantity: IC50 (nM)

Take a look at these entries with their results.
{"Molecular string": "CCCCCN(CCCCC)C(=O)N1CCN(C(=O)N(c2ccccc2)c2ccccc2)[C@H](C(=O)NCCN(C(C)C)C(C)C)C1", "IC50 / nM": 217}
{"Molecular string": "CCCCCN(CCCCC)C(=O)N1CCN(C(=O)N(c2ccccc2)c2ccccc2)[C@H](C(=O)N(C)CCN(C)Cc2ccccc2)C1", "IC50 / nM": 290}
{"Molecular string": "CCCCCN(CCCCC)C(=O)N1CCN(C(=O)N(c2ccccc2)c2ccccc2)[C@H](CO)C1", "IC50 / nM": 280}

P: CCCCCN(CCCCC)C(=O)N1CCN(C(=O)N(c2ccccc2)c2ccccc2)[C@H](C(=O)NCCN(C)C)C1
Q: CCCCCN(CCCCC)C(=O)N1CCN(C(=O)N(c2ccccc2)c2ccccc2)[C@H](C(=O)NCCN(C)Cc2ccccc2OC)C1
# argmax over IC50 for candidates P and Q I would appreciate it if you answered with the label of your choice. P

a: CCCCCN(CCCCC)C(=O)N1CCN(C(=O)N(c2ccccc2)c2ccccc2)[C@H](C(=O)NCCCN(CC)CC)C1
b: CCCCCN(CCCCC)C(=O)N1CCN(C(=O)N(c2ccccc2)c2ccccc2)[C@H](C(=O)N(C)CCN(C)Cc2cc(C(F)(F)F)cc(C(F)(F)F)c2)C1
// max by IC50 over [ a , b ] Mark your answer with the label of the selected entry. b

====

target: Substance-P receptor (Homo sapiens, UniProt P25103); experiment: Inhibition of [125I]-Substance P binding to human NK1 receptors in CHO cells
pIC50: −log10 of the molar value.
Measured quantity: pIC50

Worked cases, answers included:
{"Molecular string": "CCCCCN(CCCCC)C(=O)N1CCN(C(=O)N(c2ccccc2)c2ccccc2)[C@H](C(=O)N(C)CCN(C)C)C1", "Measured quantity": "pIC50", "Assay value": 6.03}
{"Molecular string": "CCCCCN(CCCCC)C(=O)N1CCN(C(=O)N(c2ccccc2)c2ccccc2)[C@H](C(=O)NCCNC(C)=O)C1", "Measured quantity": "pIC50", "Assay value": 6.85}

I: CCCCCN(CCCCC)C(=O)N1CCN(C(=O)N(c2ccccc2)c2ccccc2)[C@H](C(=O)NCC(=O)O)C1
II: CCCCCN(CCCCC)C(=O)N1CCN(C(=O)N(c2ccccc2)c2ccccc2)[C@H](C(=O)N(C)CCN(C)Cc2cc(C)cc(C)c2)C1
Which value of pIC50 is smaller, the one for I or the one for II ? Please identify the chosen entry by its label. I

====

molecular target: Substance-P receptor (Homo sapiens); assay: Inhibition of [125I]-Substance P binding to human NK1 receptors in CHO cells
pIC50: −log10 of the molar value.
Measured quantity: pIC50

Look over these answered cases.
{"Molecular string": "CCCCCN(CCCCC)C(=O)N1CCN(C(=O)N(c2ccccc2)c2ccccc2)[C@H](C(=O)NCCN(CC)CC)C1", "Target system": "Substance-P receptor (Homo sapiens)", "Assay value": 7.96}
{"Molecular string": "CCCCCN(CCCCC)C(=O)N1CCN(C(=O)N(c2ccccc2)c2ccccc2)[C@H](C(=O)NCCOC)C1", "Target system": "Substance-P receptor (Homo sapiens)", "Assay value": 6.57}
{"Molecular string": "CCCCCN(CCCCC)C(=O)N1CCN(C(=O)N(c2ccccc2)c2ccccc2)CC1", "Target system": "Substance-P receptor (Homo sapiens)", "Assay value": 6.30}
{"Molecular string": "CCCCCN(CCCCC)C(=O)N1CCN(C(=O)N(c2ccccc2)c2ccccc2)[C@H](C(=O)NCCN)C1", "Target system": "Substance-P receptor (Homo sapiens)", "Assay value": 7.24}

1: CCCCCN(CCCCC)C(=O)N1CCN(C(=O)N(c2ccccc2)c2ccccc2)[C@H](C(=O)N(C)CCN(C)Cc2ccccc2OC)C1
2: CCCCCN(CCCCC)C(=O)N1CCN(C(=O)N(c2ccccc2)c2ccccc2)[C@@H](C(=O)O)C1
Select the item with the higher value of pIC50 from the options 1 and 2 listed. # respond with the chosen item's label 1
(1: 7.77, 2: 5.52)

P: CCCCCN(CCCCC)C(=O)N1CCN(C(=O)N(c2ccccc2)c2ccccc2)[C@H](C(=O)NCCNCc2ccccc2OC)C1
Q: CCCCCN(CCCCC)C(=O)N1CCN(C(=O)N(c2ccccc2)c2ccccc2)[C@H](C(=O)O)C1
Returns: the argument ( P or Q ) having the larger pIC50. When you have decided, please share the label of that item. P
